Cited source: the supplement of paper PMC12067926

System: Pseudomonas 2 (Pseudomonas vancouverensis)
EXPERIMENTAL_DETAILS: relative growth (AUC of 72 h growth curve relative to DMSO control, dAUC) (ratio); higher = more growth (less inhibition), active = hit call of the paper
CONDITION_INFO: 20 µM
Attribute: relative growth
READOUT: relative growth

CCNC(=O)NC(=O)/C(C#N)=N/OC; 0.96
COCC(C)N(C(=O)CCl)c1c(C)csc1C (stereo unspecified); 0.974
COC(=O)NC(=S)Nc1ccccc1NC(=S)NC(=O)OC; 0.969
COCC(=O)N(c1c(C)cccc1C)[C@H](C)C(=O)OC; 0.974
C[N+](C)(C)CCCl; 1.03
CC(C)N(C)S(=O)(=O)NC(=O)c1cc(-n2c(=O)cc(C(F)(F)F)n(C)c2=O)c(F)cc1Cl; 1.02
CCOc1ccc(C(C)(C)COCc2cccc(Oc3ccccc3)c2)cc1; 0.998
CCc1cccc(C)c1N(C(=O)CCl)[C@@H](C)COC; 0.996
N#Cc1nn(-c2c(Cl)cc(C(F)(F)F)cc2Cl)c(N)c1[S+]([O-])C(F)(F)F (stereo unspecified); 0.948
CCc1cnc(C2=NC(C)(C(C)C)C(=O)N2)c(C(=O)O)c1 (stereo unspecified); 0.944
CC1(C)C(C=C(Cl)Cl)C1C(=O)OCc1cccc(Oc2ccccc2)c1 (stereo unspecified); 0.97

###

Attribute: relative growth
Tested on: Community 8
EXPERIMENTAL_DETAILS: relative growth (AUC of 72 h growth curve relative to DMSO control, dAUC) (ratio); higher = more growth (less inhibition), active = hit call of the paper
CONDITION_INFO: 20 µM
READOUT: relative growth

CCOCN(C(=O)CCl)c1c(C)cccc1CC; 1.02
CNC(=O)ON=C(C)SC; 0.942
CS(=O)(=O)c1cc(C(F)(F)F)ccc1C(=O)c1cnoc1C1CC1; 1.02
CC1COC(Cn2cncn2)(c2ccc(Oc3ccc(Cl)cc3)cc2Cl)O1 (stereo not drawn); 1.01
CCCN(CCC)C(=O)SCc1ccccc1; 1.08
COP(=O)(OC)OC=C(Cl)Cl; 0.997
CCOc1ccc(C(C)(C)COCc2cccc(Oc3ccccc3)c2)cc1; 1.06
O=C(O)c1nc(Cl)ccc1Cl; 0.994
Oc1ccccc1-c1ccccc1; 0.988
CCSC(C)CC1CC(=O)C(/C(CC)=N/OC/C=C/Cl)=C(O)C1 (mixture of isomers); 1
CC(C)N(C)S(=O)(=O)NC(=O)c1cc(-n2c(=O)cc(C(F)(F)F)n(C)c2=O)c(F)cc1Cl; 1.08
C[N+]1(C)CCCCC1; 0.99
CN1COCN(Cc2cnc(Cl)s2)/C1=N\[N+](=O)[O-]; 1.02
Cc1cc(C2CC2)nc(Nc2ccccc2)n1; 1.05
Cc1nc(N(C)C)nc(OC(=O)N(C)C)c1C; 0.951
CCOP(=S)(OCC)Oc1nc(Cl)c(Cl)cc1Cl; 1.02
CC[C@H](C)C1O[C@]2(C=C[C@@H]1C)C[C@@H]1C[C@@H](C/C=C(\C)[C@@H](O[C@H]3C[C@H](OC)[C@@H](O[C@H]4C[C@H](OC)[C@H](NC)[C@H](C)O4)[C@H](C)O3)[C@@H](C)/C=C/C=C3\CO[C@@H]4[C@H](O)C(C)=C[C@@H](C(=O)O1)[C@]34O)O2 (stereo partly drawn); 0.952
CCNc1nc(Cl)nc(NC(C)C)n1; 1.01
O=C1C2(Cl)C3(Cl)C4(Cl)C(Cl)(Cl)C5(Cl)C3(Cl)C1(Cl)C5(Cl)C24Cl (stereo not drawn); 1.02
CNC(=O)/C=C(\C)OP(=O)(OC)OC; 0.954
CNC(=O)c1cc(Cl)cc(C)c1NC(=O)c1cc(Br)nn1-c1ncccc1Cl; 1.04
CNC(=O)Oc1cccc2ccccc12; 1.06
O=C(NC(=O)c1c(F)cccc1F)Nc1ccc(OC(F)(F)C(F)OC(F)(F)F)c(Cl)c1 (stereo not drawn); 0.997

###

Test system: Aeromonas 2 (Aeromonas sobria)
EXPERIMENTAL_DETAILS: relative growth (AUC of 72 h growth curve relative to DMSO control, dAUC) (ratio); higher = more growth (less inhibition), active = hit call of the paper
CONDITION_INFO: 20 µM
Attribute: relative growth
READOUT: relative growth

C[N+]1(C)CCCCC1; 1.01 (inactive)
CCCC(Cn1cncn1)c1ccc(Cl)cc1Cl (stereo not drawn); 0.996 (inactive)
CC1=NNC(=O)N(/N=C/c2cccnc2)C1; 1.04 (inactive)
Oc1ccccc1-c1ccccc1; 0.967 (inactive)
O=C(NC(=O)c1c(F)cccc1F)Nc1ccc(OC(F)(F)C(F)OC(F)(F)F)c(Cl)c1 (stereo not drawn); 0.975 (inactive)
O=C(NC(=O)c1c(F)cccc1F)Nc1ccc(Cl)cc1; 1.01 (inactive)
CCCN(CCOc1c(Cl)cc(Cl)cc1Cl)C(=O)n1ccnc1; 0.971 (inactive)
CNC(=O)ON=C(C)SC; 0.974 (inactive)
N#Cc1c(Cl)c(Cl)c(Cl)c(C#N)c1Cl; 0.898 (inactive)
CCOCN(C(=O)CCl)c1c(C)cccc1CC; 0.938 (inactive)
C#CCOc1ccc(CCNC(=O)C(OCC#C)c2ccc(Cl)cc2)cc1OC (stereo not drawn); 0.985 (inactive)
Oc1ccc(Cl)cc1Cc1cc(Cl)ccc1O; 0.00195 (active)
COP(=O)(NC(C)=O)SC (stereo not drawn); 0.995 (inactive)

###

Tested on: Arthrobacter 3 (Arthrobacter sp.)
EXPERIMENTAL_DETAILS: relative growth (AUC of 72 h growth curve relative to DMSO control, dAUC) (ratio); higher = more growth (less inhibition), active = hit call of the paper;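 active = growth AUC significantly below the DMSO wells by Dunnett test; inactive = the rest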
CONDITION_INFO: 20 µM
Outcomes: active, inactive

CNC(=O)c1cc(Cl)cc(C)c1NC(=O)c1cc(Br)nn1-c1ncccc1Cl; inactive
N#Cc1nn(-c2c(Cl)cc(C(F)(F)F)cc2Cl)c(N)c1[S+]([O-])C(F)(F)F (centres undefined); inactive
Cc1cc(C2CC2)nc(Nc2ccccc2)n1; active
N#Cc1c(Cl)c(Cl)c(Cl)c(C#N)c1Cl; active

###

Tested on: Community 8
EXPERIMENTAL_DETAILS: relative growth (AUC of 72 h growth curve relative to DMSO control, dAUC) (ratio); higher = more growth (less inhibition), active = hit call of the paper
CONDITION_INFO: 20 µM
We use 1 as the dividing line for relative growth: on or above the line is true, below is false.

Nc1c([N+](=O)[O-])ccc(Oc2ccccc2)c1Cl; true
O=C(NCCc1ncc(C(F)(F)F)cc1Cl)c1ccccc1C(F)(F)F; false
CCCC(Cn1cncn1)c1ccc(Cl)cc1Cl (stereo unspecified); true
CCc1cnc(C2=NC(C)(C(C)C)C(=O)N2)c(C(=O)O)c1 (stereo unspecified); true
CC(C)N1C(=O)N(c2ccccc2)CS/C1=N\C(C)(C)C; true
O=C(NC(=O)c1c(F)cccc1F)Nc1ccc(Cl)cc1; true

###

System: Community 6
EXPERIMENTAL_DETAILS: relative growth (AUC of 72 h growth curve relative to DMSO control, dAUC) (ratio); higher = more growth (less inhibition), active = hit call of the paper
CONDITION_INFO: 20 µM
We use 1 as the dividing line for relative growth: on or above the line is criterion met, below is criterion not met.

Fc1ccc(Oc2ccnc3cc(Cl)cc(Cl)c23)cc1; criterion not met
N#Cc1c(Cl)c(Cl)c(Cl)c(C#N)c1Cl; criterion not met
COCC(=O)N(c1c(C)cccc1C)C(C)C(=O)OC (stereo not given); criterion met
CC(C)(C)c1ccc(CSc2cnn(C(C)(C)C)c(=O)c2Cl)cc1; criterion met
CCOCN(C(=O)CCl)c1c(C)cccc1CC; criterion not met
N#C/N=C1\SCCN1Cc1ccc(Cl)nc1; criterion met
CC(C)(C)[C@@H](O)[C@H](Oc1ccc(Cl)cc1)n1cncn1; criterion met
O=[N+]([O-])c1cc(C(F)(F)F)c(Cl)c([N+](=O)[O-])c1Nc1ncc(C(F)(F)F)cc1Cl; criterion not met
CNC(=O)c1cc(Cl)cc(C)c1NC(=O)c1cc(Br)nn1-c1ncccc1Cl; criterion met
CCCC(Cn1cncn1)c1ccc(Cl)cc1Cl (stereo not given); criterion met
CC(Oc1ccc(Oc2ncc(C(F)(F)F)cc2Cl)cc1)C(=O)O (stereo not given); criterion not met
COc1cc(OC)nc(NC(=O)NS(=O)(=O)c2ncccc2C(=O)N(C)C)n1; criterion met
ClC1C(Cl)C(Cl)C(Cl)C(Cl)C1Cl (stereo not given); criterion not met
COc1cc(C)c(C(=O)c2c(OC)ccc(Br)c2C)c(OC)c1OC; criterion met
O=C1c2ccccc2C(=O)N1SC(Cl)(Cl)Cl; criterion not met
CNC(=O)c1cc(C#N)cc(C)c1NC(=O)c1cc(Br)nn1-c1ncccc1Cl; criterion not met
CS(=O)(=O)c1cc(C(F)(F)F)ccc1C(=O)c1cnoc1C1CC1; criterion met
CO/N=C(/C(=O)OC)c1ccccc1CO/N=C(\C)c1cccc(C(F)(F)F)c1; criterion not met
CC(C)N(C(=O)COc1nnc(C(F)(F)F)s1)c1ccc(F)cc1; criterion not met
CC1(C)[C@H](/C=C(\Cl)C(F)(F)F)[C@@H]1C(=O)OC(C#N)c1cccc(Oc2ccccc2)c1 (stereo not given in full); criterion met
C#CCN1C(=O)COc2cc(F)c(N3C(=O)C4=C(CCCC4)C3=O)cc21; criterion not met
CC1(C)CON(Cc2ccccc2Cl)C1=O; criterion not met
CCOc1cc(Oc2ccc(C(F)(F)F)cc2Cl)ccc1[N+](=O)[O-]; criterion not met
O=C(NC(=O)c1c(F)cccc1F)Nc1ccc(OC(F)(F)C(F)OC(F)(F)F)c(Cl)c1 (stereo not given); criterion not met
CC(C)(C)C(O)(CCc1ccc(Cl)cc1)Cn1cncn1 (stereo not given); criterion not met
CCc1cnc(C2=NC(C)(C(C)C)C(=O)N2)c(C(=O)O)c1 (stereo not given); criterion met
O=C1C=C(N(Cc2ccc(Cl)nc2)CC(F)F)CO1; criterion not met
CC1(C)C(C(=O)OC(C#N)c2cccc(Oc3ccccc3)c2)C1(C)C (stereo not given); criterion met
CC1(C)C(C=C(Cl)Cl)C1C(=O)OC(C#N)c1cccc(Oc2ccccc2)c1 (stereo not given); criterion met
CCOP(=S)(OCC)Oc1cc(C)nc(C(C)C)n1; criterion not met
Cc1cc(C)c(C2=C(OC(=O)CC(C)(C)C)C3(CCCC3)OC2=O)c(C)c1; criterion not met
O=C(O)CNCP(=O)(O)O; criterion met
CC1(C)[C@H](C(=O)O[C@H](C#N)c2cccc(Oc3ccccc3)c2)[C@@H]1C=C(Br)Br; criterion met
